assay: NOD1 signaling inhibitors, primary screen, cell-based, luminescence, uHTS (AID 1578); conditions: NOD1-driven NF-kB luciferase reporter cells, at 4 µM, stronger effect = higher value;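 also: HEK-293T reporter cells stimulated with the NOD1 agonist gamma-tri-DAP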
Hit rate of the full screen: of about 290,000 compounds, about 3,000 (1%) were called active. Shown is part of a subset that was picked to be rich in actives.
# reported inhibition; entries follow
metric.name: inhibition (%)

> print(dat)
                              smiles.string  metric.name  value.unit  measured
1   COC(=O)c1cccc(Cn2cc([N+](=O)[O-])cn2)c1   inhibition           %      -7.1
2              Fc1ccc(-c2ccnn2-c2ccccc2)cc1   inhibition           %     -18.4
3  O=C(N/N=C/c1ccc(O)cc1O)c1ccc(NC(=O)C2CCCCC2)cc1   inhibition           %     -73.3
4  O=C1CSc2ccc(C(=O)N3CCN(c4ccccn4)CC3)cc2N1   inhibition           %       0.1
5            Oc1ccc(Br)cc1-c1ccnn1-c1ccccc1   inhibition           %      82.1
6  Cc1nn(Cc2cccc(C(=O)Nn3cc([N+](=O)[O-])cn3)c2)c(C)c1[N+](=O)[O-]   inhibition           %       0.9

====

assay: NOD1 signaling inhibitors, primary screen, cell-based, luminescence, uHTS (AID 1578); details: NOD1-driven NF-kB luciferase reporter cells, at 4 µM;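 also: HEK-293T reporter cells stimulated with the NOD1 agonist gamma-tri-DAP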
Among all 290,000 compounds or so, about 3,000 (1%) were called active. Rule as the data show it: active = inhibition mostly above about 36% (no sharp cut-off); inactive = mostly below about 34%. The sample as a whole holds a higher share of actives than the screen did.
Outcome codes: active, inactive

> print(dat)
                                    compound  discrete.label
 1          Cc1ccc(-c2nc(-c3ccccn3)no2)cc1Cl          active
 2  CC1CCN(C(=O)c2ccccc2NC(=O)c2cccc(S(=O)(=O)N(C)C)c2)CC1        inactive
 3    COc1ccc(Cc2n[nH]c(=S)n2Cc2ccccc2)cc1Cl          active
 4  Clc1nc(Oc2ccccc2)nc(-c2cn(-c3ccccc3)c3ccccc23)n1        inactive
 5  CCOc1ccc(C2C(C(=O)c3ccco3)=C(O)C(=O)N2CCN2CCOCC2)cc1 (configuration not stated)        inactive
 6           COc1cccc(-c2nc(-c3ccccc3)no2)c1        inactive
 7            Cc1ccc(-c2nc(-c3ccccn3)no2)cc1          active
 8             c1ccc(-c2noc(-c3ccncc3)n2)nc1        inactive
 9             c1ccc(-c2nc(-c3ccccn3)no2)cc1          active
10  CC(C)Oc1ccc(Cc2n[nH]c(=S)n2Cc2ccccc2)cc1Cl        inactive
11  O=C(NCc1ccccc1)C1COc2ccccc2O1 (configuration not stated)        inactive
12           Clc1cccc(-c2nc(-c3ccccn3)no2)c1        inactive

====

# reported inhibition; entries follow
assay: NOD1 signaling inhibitors, primary screen, cell-based, luminescence, uHTS (AID 1578); conditions: NOD1-driven NF-kB luciferase reporter cells, at 4 µM, stronger effect = higher value;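 also: HEK-293T reporter cells stimulated with the NOD1 agonist gamma-tri-DAP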
Out of some 290,000 compounds screened, about 3,000 (1%) were called active. Many of the other results were omitted from the sample, so actives are more common in it than they were.
metric.name: inhibition (%)

> print(dat)
                               smiles.string  metric.name  value.unit  measured
 1  CCOC(=O)c1c(NC(=O)c2cccs2)sc2c1CCN(C(=O)OCC)C2   inhibition           %        14
 2  CCOC(=O)N1CCc2c(sc(NC(=O)c3ccc(Cl)s3)c2C(N)=O)C1   inhibition           %      85.3
 3          Cc1coc2cc3oc(=O)c4c(c3cc12)CCCC4   inhibition           %     -30.5
 4   CC(=O)Oc1c(I)cc(I)cc1C(=O)Nc1ccc(Cl)cc1   inhibition           %      85.8
 5              CCC(=O)Nc1nc2ccccc2n1CCN(C)C   inhibition           %     -15.3
 6  COC(=O)CS(=O)(=O)c1cc(Br)cc2c1N(C(C)=O)CC2   inhibition           %     -37.1
 7  O=C(Nc1ccc(Oc2ccc(Cl)cc2)c(Cl)c1)c1cc(I)cc(I)c1O   inhibition           %     -14.3
 8  COc1cc(OC)cc(C(=O)Nn2cc(C(=O)Nc3ccccc3F)c3ccccc3c2=O)c1   inhibition           %     -16.8
 9              O=C(NCCNC(=O)c1ccco1)c1ccco1   inhibition           %         5
10               Fc1ccc(NC(=S)NCc2cccnc2)cc1   inhibition           %     -21.1
11  CCOC(=O)N1CCc2c(sc(NC(=O)C3=COCCO3)c2C(N)=O)C1   inhibition           %     -29.7

====

assay: NOD1 signaling inhibitors, primary screen, cell-based, luminescence, uHTS (AID 1578); conditions: NOD1-driven NF-kB luciferase reporter cells, at 4 µM, stronger effect = higher value;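 also: HEK-293T reporter cells stimulated with the NOD1 agonist gamma-tri-DAP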
The campaign covered roughly 290,000 compounds. About 3,000 (1%) were called active. This is one part of a sample in which actives are shown more often than they occur.
# reported inhibition; entries follow
metric.name: inhibition (%)

> print(dat)
                                    compound  metric.name  measured
 1      Oc1ccc(Nc2ncnc3scc(-c4ccccc4)c23)cc1   inhibition      83.6
 2    NNC(=O)CCN1CCN(C(c2ccccc2)c2ccccc2)CC1   inhibition     -18.4
 3   Fc1ccc(-c2nc3nc4ccccc4nc3n2Cc2ccco2)cc1   inhibition     -13.7
 4                CCSc1nnc(NC(=O)C2CCCCC2)s1   inhibition     -31.5
 5  COc1ccc(C(=O)NCCOC(C)C)cc1OC1CCN(C(C)=O)CC1   inhibition     -13.7
 6     Cc1ccc2c(c1)N(CC(=O)NC1CCCC1)C(=O)CO2   inhibition     -27.1
 7  CCOC(=O)N1CCN(C(=O)c2c[nH]c3ccc(S(=O)(=O)N(C)c4ccc(F)cc4)cc3c2=O)CC1   inhibition     -23.5
 8      c1ccc(CNc2nc(-c3cccs3)nc3ccccc23)nc1   inhibition     -27.4
 9  CC(=O)OC[C@H]1O[C@@H](O/N=C(\C)CCN2CCCCc3nc(C)c(C)cc32)[C@H](OC(C)=O)[C@@H](OC(C)=O)[C@@H]1OC(C)=O   inhibition      -2.5
10        CCc1noc(C)c1C(=O)Nc1ccccc1C(C)(C)C   inhibition      38.7
11  COc1ccc(NS(=O)(=O)c2cccc(C(=O)OCC(=O)NC3CC3)c2)cc1   inhibition       7.3
12            Cc1ccc(C)c(NC(=O)CCN2CCCCC2)c1   inhibition     -14.7
13                 c1ccc(Oc2cnc3ccccc3n2)cc1   inhibition      13.1
14  CCN(CC(=O)Nc1c(F)cccc1F)C(=O)c1n[nH]c2ccccc12   inhibition     -21.6
15     N=c1oc2ccc(Cl)cc2cc1C(=O)Nc1ccc(F)cc1   inhibition      -7.8
16  Cc1[nH]n(-c2ccc(Br)cc2)c(=O)c1/C=N/NC(=O)c1ccccc1   inhibition        69
17       CCCNC(=S)N1CCC(C(=O)c2ccc(F)cc2)CC1   inhibition     -20.1
18  Cc1ccc(-n2[nH]c(C)c(/C=N/NC(=O)c3cccc([N+](=O)[O-])c3)c2=O)cc1C   inhibition      92.8
19                Cc1ccc(Oc2cnc3ccccc3n2)cc1   inhibition      18.8
20        Cc1ccccc1NC(=O)c1c(-c2ccccc2)noc1C   inhibition      -7.9
21  COc1ccccc1P(=O)(Cc1ccccc1[N+](=O)[O-])c1ccccc1 (stereo not given)   inhibition      -7.4
22  Cc1sc2ncnc(NCC3COc4ccccc4O3)c2c1C (stereo not given)   inhibition      44.6
23   CCC(=O)N1CCN(c2nc(-c3ccc(Cl)cc3)cs2)CC1   inhibition     -12.7
24  CCOc1ncccc1C(=O)Nc1cccc(-c2nnc3n2CCCCC3)c1   inhibition     -22.1
25  COc1ccc(C(=O)/C=C/Nc2ccc(S(=O)(=O)Nc3nc(C)cc(C)n3)cc2)cc1OC   inhibition     -18.8
26  O=C(O)c1ccc(S(=O)(=O)N2CCC(Cc3ccccc3)CC2)cc1   inhibition       2.5
27          O=C(Oc1cc(=O)oc2ccccc12)c1ccccc1   inhibition      -8.5
28  COc1ccc(NC(=O)c2ccccn2)cc1S(=O)(=O)N1CCOCC1   inhibition     -33.7
29  Cc1cc(NC(=O)CSc2nc3ccsc3c(=O)n2CCCC(=O)NCCc2ccccc2)no1   inhibition       -20
30  CCN1C=C(Cc2ccccc2C)C2=C(C1)C(c1ccccc1C)C(C#N)=C(N)O2 (stereo not given)   inhibition      71.8
31  COc1ccc(N2CC(C(=O)N3CCN(C)CC3)CC2=O)cc1 (stereo not given)   inhibition       3.9
32  CCOC(=O)C1=C(C)NC(=O)NC1c1cc2c(cc1Br)OCO2 (stereo not given)   inhibition     -20.8
33    O=C(CCCCC(=O)NCCCc1ccccc1)NCCCc1ccccc1   inhibition     -23.1
34  c1ccc2c(c1)OCC(CNc1ncnc3sccc13)O2 (stereo not given)   inhibition      57.1
35              Cc1cc(Br)c(NC(=O)CCl)c(Br)c1   inhibition      42.9
36    CC(C)CNC(=S)N1CCC(C(=O)c2ccc(F)cc2)CC1   inhibition      61.7
37  NC(=O)C1CCN(c2ccc(S(=O)(=O)N3CCCCC3)cn2)CC1   inhibition     -25.2
38  O=C(CC1C(=O)N(c2ccccc2)C(=O)N1C1CCCCC1)Nc1ccccc1 (stereo not given)   inhibition      11.7
39  Cc1cc(C(=O)NC2CCCN(Cc3ccccc3F)C2)no1 (stereo not given)   inhibition     -19.1
40     O=C(CCN1CCN(Cc2ccccc2)CC1)Nc1ccccc1Cl   inhibition     -19.8
41  CCOC(=O)N1CCN(C(=O)c2cn(C)c3ccc(S(=O)(=O)N4CCOCC4)cc3c2=O)CC1   inhibition       -11
42  COc1ccc2c(c1)c1nc3n(c(=O)c1n2CC(=O)Nc1cc(C)[nH]n1)CCS3   inhibition      63.4
43      C=CCNC(=S)N1CCC(C(=O)c2ccc(F)cc2)CC1   inhibition     -20.4
44             O=C(CCl)Nc1c[nH]c(=O)[nH]c1=O   inhibition     -31.2
45          CC(C)c1ccc(Nc2nc(Cl)nc(Cl)n2)cc1   inhibition       -33
